Can you tell me Survival for the items I'm about to list?
System: P388 murine leukemia
Experiment Description: In vivo anti-tumor activity, i.p. implanted leukemia
Set-up: species or system BDF1 hybrid male mice
Experimental Setup: 55 mg/kg/day; day 60
Give bare numbers, in %.

O=C(Nc1ccccc1)N1CCCC1c1cc2c(cc1O)OCO2 (centres unmarked) [5b] | 17

Please give Survival, item by item, for the list that follows.
1. CN(C)CCNC(=O)N1CCCC1c1c(O)c2ccccc2oc1=O.O=C(O)C(F)(F)F (centres unmarked) [8h]
2. Cc1cc(O)c(C2CCCN2C(=O)NCCN(C)C)c(=O)o1.O=C(O)C(F)(F)F (centres unmarked) [7h]
3. CN(C)CCNC(=O)N1CCCC1c1cc2c(cc1O)OCO2.O=C(O)C(F)(F)F (centres unmarked) [5h]
4. CN(C)CCNC(=O)N1CCCC1c1ccc(Nc2c([N+](=O)[O-])c(Cl)cc3c2no[n+]3[O-])cc1O.O=C(O)C(F)(F)F (centres unmarked) [6h]

1. 17
2. 0
3. 50
4. 0

* * *

Test system: P388 murine leukemia
Experiment Description: In vivo anti-tumor activity, i.p. implanted leukemia;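 as to ILS: ILS is treated over control median survival time times 100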
Parameters: species or system BDF1 hybrid male mice
Experimental Setup: 18 mg/kg/day i.p., days 1, 5, 9; P388
Could you label it Criterion met if measured ILS is 40% or higher, and Criterion not met otherwise?

CN(C)CCNC(=O)N1CCCC1c1cc2c(cc1O)OCO2.O=C(O)C(F)(F)F (centres unmarked) | Criterion met
CN(C)CCNC(=O)N1CCCC1c1ccc(Nc2c([N+](=O)[O-])c(Cl)cc3c2no[n+]3[O-])cc1O.O=C(O)C(F)(F)F (centres unmarked) | Criterion not met
CN(C)CCNC(=O)N1CCCC1c1c(O)c2ccccc2oc1=O.O=C(O)C(F)(F)F (centres unmarked) | Criterion met
O=C(Nc1ccccc1)N1CCCC1c1cc2c(cc1O)OCO2 (centres unmarked) | Criterion met

Now consider the entry below.
Is ILS for Cc1cc(O)c(C2CCCN2C(=O)NCCN(C)C)c(=O)o1.O=C(O)C(F)(F)F (centres unmarked) at or above 40%?
Criterion not met

* * *

Test system: Acinetobacter calcoaceticus VKPM B-10353
Experiment Description: Biofilm formation, crystal violet assay
Type: cell-based
Experimental Setup: A. calcoaceticus VKPM B-10353; 1 × 10^−9 M; control = 100%
Readout Name: Biofilm Formation (%)
Numbers only, in %.

COc1ccc(NC(=O)N2CCCC2c2ccc(Nc3c([N+](=O)[O-])c(Cl)cc4c3no[n+]4[O-])cc2O)cc1 (stereo not drawn) | 93.75

Please give Biofilm Formation, item by item, for the list that follows.
1. O=C(Nc1ccccc1)N1CCCC1c1ccc(Nc2c([N+](=O)[O-])c(Cl)cc3c2no[n+]3[O-])cc1O (stereo not drawn)
2. CC[C@H]1OC(=O)[C@H](C)[C@@H](O[C@H]2C[C@@](C)(OC)[C@@H](O)[C@H](C)O2)[C@H](C)[C@@H](O[C@@H]2O[C@H](C)C[C@H](N(C)C)[C@H]2O)[C@](C)(O)C[C@@H](C)CN(C)[C@H](C)[C@@H](O)[C@]1(C)O [Azithromycin, reference compound]

1: 90.41; 2: 95.00

* * *

Can you tell me Genotoxicity (induction factor, I) for the items I'm about to list?
Test system: Escherichia coli MG1655 (pRecA-lux)
Experiment Description: Genotoxicity, bacterial lux-biosensor
Assay type: cell-based
Experimental Setup: without metabolic activation (-S9); 10^−6 M
Numbers only.

O=[N+]([O-])c1c(Cl)cc2c(no[n+]2[O-])c1Nc1cccc(O)c1 [compound 4] | 1.27
COc1ccc(NC(=O)N2CCCC2c2ccc(Nc3c([N+](=O)[O-])c(Cl)cc4c3no[n+]4[O-])cc2O)cc1 (centres unmarked) [6c] | 2.82

Please give Genotoxicity (induction factor, I), item by item, for the list that follows.
1. O=C(Nc1ccccc1)N1CCCC1c1ccc(Nc2c([N+](=O)[O-])c(Cl)cc3c2no[n+]3[O-])cc1O (centres unmarked) [6b]
2. O=C(Nc1ccc(F)cc1)N1CCCC1c1ccc(Nc2c([N+](=O)[O-])c(Cl)cc3c2no[n+]3[O-])cc1O (centres unmarked) [6e]

1: 2.15; 2: 2.39

Assign Genotoxicity (induction factor, I) to the following record: O=C(Nc1ccc(Br)cc1)N1CCCC1c1ccc(Nc2c([N+](=O)[O-])c(Cl)cc3c2no[n+]3[O-])cc1O (centres unmarked) [6d]
0.70
